The values you see were collected from patent US6875743B1.

# pIC50 values compiled below
- target-of-assay: VLA4 (Homo sapiens, UniProt P05556+P13612)
- Construct: endogenous in cells; host or cells: Ramos cells
- Sequence (P13612 34-1032): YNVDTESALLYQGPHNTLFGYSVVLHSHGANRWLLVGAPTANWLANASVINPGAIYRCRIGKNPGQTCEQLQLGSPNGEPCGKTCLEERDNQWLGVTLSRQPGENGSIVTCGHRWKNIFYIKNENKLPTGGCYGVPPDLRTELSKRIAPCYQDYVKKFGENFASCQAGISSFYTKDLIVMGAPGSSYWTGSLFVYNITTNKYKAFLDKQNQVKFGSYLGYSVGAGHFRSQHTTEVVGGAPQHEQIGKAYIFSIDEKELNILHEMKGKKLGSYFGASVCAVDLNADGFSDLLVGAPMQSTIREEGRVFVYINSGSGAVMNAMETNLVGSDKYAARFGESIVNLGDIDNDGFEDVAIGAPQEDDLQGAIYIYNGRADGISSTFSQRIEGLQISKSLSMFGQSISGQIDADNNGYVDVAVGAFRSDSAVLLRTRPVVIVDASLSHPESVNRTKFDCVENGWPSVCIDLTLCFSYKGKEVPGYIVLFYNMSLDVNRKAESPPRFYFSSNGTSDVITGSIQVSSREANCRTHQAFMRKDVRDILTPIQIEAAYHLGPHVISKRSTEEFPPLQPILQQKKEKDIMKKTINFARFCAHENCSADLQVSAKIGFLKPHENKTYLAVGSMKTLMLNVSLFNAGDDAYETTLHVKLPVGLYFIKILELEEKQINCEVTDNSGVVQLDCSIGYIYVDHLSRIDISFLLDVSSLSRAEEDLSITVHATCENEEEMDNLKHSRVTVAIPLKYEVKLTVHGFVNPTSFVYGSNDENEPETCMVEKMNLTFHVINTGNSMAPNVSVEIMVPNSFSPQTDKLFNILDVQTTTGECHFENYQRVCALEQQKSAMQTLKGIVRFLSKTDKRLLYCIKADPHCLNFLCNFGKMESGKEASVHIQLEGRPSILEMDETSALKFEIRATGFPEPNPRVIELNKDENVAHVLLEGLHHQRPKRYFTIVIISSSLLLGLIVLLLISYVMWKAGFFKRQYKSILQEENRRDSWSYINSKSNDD
- Sequence (P05556 21-798): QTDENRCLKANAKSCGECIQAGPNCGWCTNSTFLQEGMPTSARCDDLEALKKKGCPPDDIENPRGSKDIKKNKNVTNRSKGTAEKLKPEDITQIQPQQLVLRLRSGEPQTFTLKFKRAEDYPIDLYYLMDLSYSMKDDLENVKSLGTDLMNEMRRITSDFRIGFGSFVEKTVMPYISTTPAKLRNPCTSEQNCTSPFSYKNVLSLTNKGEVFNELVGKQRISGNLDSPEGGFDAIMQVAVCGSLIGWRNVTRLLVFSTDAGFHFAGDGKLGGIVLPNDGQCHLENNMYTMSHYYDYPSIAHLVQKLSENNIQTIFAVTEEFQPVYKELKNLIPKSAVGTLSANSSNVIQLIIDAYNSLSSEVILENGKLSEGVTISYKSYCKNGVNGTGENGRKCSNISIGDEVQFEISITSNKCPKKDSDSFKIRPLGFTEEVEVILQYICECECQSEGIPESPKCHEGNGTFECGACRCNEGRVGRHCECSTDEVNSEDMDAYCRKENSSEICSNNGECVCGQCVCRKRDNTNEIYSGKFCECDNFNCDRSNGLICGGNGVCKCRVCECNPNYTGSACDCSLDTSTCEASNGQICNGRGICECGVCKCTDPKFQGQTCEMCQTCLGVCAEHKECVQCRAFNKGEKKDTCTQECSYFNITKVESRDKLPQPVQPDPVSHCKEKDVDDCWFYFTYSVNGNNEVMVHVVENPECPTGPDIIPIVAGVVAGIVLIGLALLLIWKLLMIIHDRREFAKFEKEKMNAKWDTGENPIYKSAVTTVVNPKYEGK
- experiment: Inhibition of VLA4-dependent adhesion to BSA-CS1
- Assay type: cell-based
- condition-label: binding of BCECF-labelled Ramos cells to BSA-CS1 coated wells, 2 mM MnCl2; read-out: IC50
pIC50: −log10 of the molar value. Square brackets hold non-standard residues; d marks the D form. Peptide text beside a SMILES is read from it. Tic = O=C(O)[CH]1Cc2ccccc2CN1
observable: pIC50

molecule	observable	value-reported
CC(C)C[C@H](NC(=O)c1coc2c1C(=O)CCC2)C(=O)N[C@@H](CC(=O)O)C(=O)N[C@H](C(=O)O)C(C)C	pIC50	5.00 to 7.30
CC(C)C[C@H](NC(=O)c1c2c(nc3ccccc13)CCCC2)C(=O)N[C@@H](CC(=O)O)C(=O)N[C@H](C(=O)O)C(C)C	pIC50	< 5.00
CNC(=O)[C@@H](CC(C)C)NC(=O)[C@H](CC(=O)O)NC(=O)[C@@H]1CCCN1C(=O)Cc1ccc(NC(=O)Nc2ccccc2C)cc1	pIC50	5.00 to 7.30
CC(C)CC(NC(=O)C1Cc2ccccc2CN1)C(=O)NC(CC(=O)O)C(=O)O (stereo not drawn) [Compound 23] (H-[Tic]-Leu-Asp-OH; configuration not given here)	pIC50	< 5.00
Cc1ccccc1NC(=O)Nc1ccc(CC(=O)N[C@H](C(=O)N[C@@H](CC(=O)O)C(=O)N[C@@H](CCC(=O)O)C(N)=O)[C@@H](C)O)cc1	pIC50	> 7.30
Cc1ccccc1NC(=O)Nc1ccc(CC(=O)N[C@H](CC(C)C)C(=O)N[C@@H](CC(=O)O)C(=O)N[C@@H](CC(C)C)C(N)=O)cc1	pIC50	> 7.30
Cc1ccccc1NC(=O)Nc1ccc(CC(=O)N[C@H](C(=O)N[C@@H](CC(=O)O)C(=O)N[C@@H](Cc2c[nH]c3ccccc23)C(N)=O)[C@@H](C)O)cc1	pIC50	> 7.30
CSCC[C@H](NC(=O)[C@H](CC(=O)O)NC(=O)[C@@H](CC(C)C)NC(=O)Cc1ccc(NC(=O)Nc2ccccc2C)cc1)C(N)=O	pIC50	> 7.30
Cc1ccccc1NC(=O)Nc1ccc(CC(=O)N[C@H](CC(C)C)C(=O)N[C@@H](CC(=O)O)C(=O)N[C@H](C(N)=O)C(C)C)cc1	pIC50	> 7.30
Cc1ccccc1NC(=O)Nc1ccc(CC(=O)N[C@@H](CC(C)C)C(=O)N[C@@H](CC(=O)O)C(=O)N[C@@H](CCC(=O)O)C(N)=O)cc1	pIC50	> 7.30
CSCC[C@H](NC(=O)[C@H](CC(=O)O)NC(=O)[C@H](CCC(=O)O)NC(=O)Cc1ccc(NC(=O)Nc2ccccc2C)cc1)C(N)=O	pIC50	> 7.30
CC(C)C[C@H](NC(=O)c1cccnc1Sc1ccccc1)C(=O)N[C@@H](CC(=O)O)C(=O)N[C@H](C(=O)O)C(C)C	pIC50	< 5.00

###

- target-of-assay: VLA4 (Homo sapiens, UniProt P05556+P13612)
- Construct: endogenous in cells; host or cells: Ramos cells
- experiment: Inhibition of VLA4-dependent adhesion to BSA-CS1
- Assay type: cell-based
- condition-label: binding of BCECF-labelled Ramos cells to BSA-CS1 coated wells, 2 mM MnCl2; read-out: IC50
Square brackets hold non-standard residues; d marks the D form. Peptide text beside a SMILES is read from it. * marks the point of attachment. Quinaldoyl = O=C(c1ccc2ccccc2n1)*; Nle = CCCC[CH](N)C(=O)O; PhAc = O=C(Cc1ccccc1)*; Bn = c1ccc(C*)cc1
Parameter: IC50. Scope: all listed entries.

molecule	IC50
CSCC[C@H](NC(=O)[C@@H](NC(=O)[C@H](CC(=O)O)NC(=O)[C@H](CC(C)C)NC(=O)c1ccc2ccccc2n1)C(C)C)C(=O)O [Compound 186] (Quinaldoyl-LDVM-OH)	> 10 µM
Cc1ccccc1NC(=O)Nc1ccc(CC(=O)N[C@@H](CCC(N)=O)C(=O)N[C@@H](CC(=O)O)C(=O)N[C@H](C(N)=O)C(C)C)cc1 [Compound 299]	< 0.05 µM
CC(C)C[C@H](NC(=O)c1cncc(C#Cc2ccccc2)c1)C(=O)N[C@@H](CC(=O)O)C(=O)N[C@H](C(=O)O)C(C)C [Compound 372]	> 10 µM
CCCCC(NC(=O)C(NC(=O)C(CC(=O)O)NC(=O)C(CC(C)C)NC(=O)Cc1ccccc1)C(C)C)C(=O)O (stereo not drawn) [Compound 43] (PhAc-LDV[Nle]-OH; configuration not given here)	0.05 to 10 µM
COC(=O)[C@@H](NC(=O)[C@H](CC(=O)O)NC(=O)[C@H](CC(C)C)NC(=O)Cc1ccccc1)[C@@H](C)OCc1ccccc1 [Compound 192] (PhAc-Leu-Asp-Thr(Bn)-OMe)	0.05 to 10 µM
CC(C)CC(NC(=O)CCc1ccccc1)C(=O)NC(CC(=O)O)C(=O)NCC1CCCCC1 (stereo not drawn) [Compound 24]	> 10 µM
